- Tested on: NCI-H460 lung
- TEST SUMMARY: NCI-60 one-dose screen, 48 h (100 = growth as untreated, 0 = no growth, -100 = all killed)
- ASSAY CONDITIONS: 10 µM unless noted
This is part of a sample that, as a whole, favours compounds with a hit. Of some 83,000 tested, about 20% had one in any assay.
MEASURE: growth (%)
The reply should contain only the number, in %.

Field: example entries. Status: answers known.
CCCCCCCCCCCC1N=C(N)N=C(N)N1c1cccc(Br)c1 (stereo unspecified) | -58.4
c1ccc2sc(SSN3CC4CCC(CC4)C3)nc2c1 | 115
O=C(/C(Cl)=N/O)c1ccc(-c2ccccc2)cc1 | 107
O=C(c1ccccc1)c1ccc(O)c2ncccc12 | 13.7
NC(=S)N/N=C/c1ncccc1O | 8.78

Q: Tell me its growth given CCCc1cc(=O)oc2c3c(c4c(c12)OC(C)(C)CC4)OC(C)[C@H](C)[C@@H]3O (stereo partly specified) as the entry.
Ans: 85.7

---

- Test system: UO-31 renal
- TEST SUMMARY: NCI-60 one-dose screen, 48 h (100 = growth as untreated, 0 = no growth, -100 = all killed)
- ASSAY CONDITIONS: 10 µM unless noted
About 83,000 compounds went through this panel and 20% of them were active in at least one assay; those are over-represented in the sample as a whole.
MEASURE: growth (%)
Write down the numeric answer in % and omit the unit.

CC(C)(C)c1ccc(O)c(-c2ccccc2)c1 | 110
Oc1ccc(Nc2ccc3ccccc3c2)cc1 | 10.6
COc1ccc(NC(=O)/C(=C/N2C(=O)/C(=C/c3ccc(OC)c(OC)c3)NC2=S)C(C)=O)cc1 | 54.6

Q: Tell me growth reported for O=C1C(=O)c2cc([N+](=O)[O-])ccc2-c2ccccc21
Ans: -87.7

Q: // fetch growth given entry COc1cc(/C=C/c2ccnc3ccccc23)cc(OC)c1OC
Ans: 37

Q: Tell us which growth value is on record for O=C1c2ccccc2C(=O)c2c(O)c(Cl)cc(O)c21
Ans: 79.8

---

- System: MOLT-4 leukemia
- TEST SUMMARY: NCI-60 one-dose screen, 48 h
- ASSAY CONDITIONS: 10 µM unless noted
About 83,000 compounds went through this panel and 20% of them were active in at least one assay; those are over-represented in the sample as a whole. Active and inactive are the calls of the source. How the source made its calls: active means growth percent below 10; inactive means the rest.
Permitted responses: True = active, False = inactive

Record excerpt, results attached:
Cc1ccc2cccc(OC(=O)Nc3cccc(C(F)(F)F)c3)c2n1 | False
CCCCCCCCCCCC[S+](C)CC(=O)[O-] (configuration not stated) | False
Cc1nc(Sc2nc3ccc([N+](=O)[O-])cc3s2)sc1C | True
O=C(/C=C/C(Cl)(Cl)Cl)Nc1ccc(Cl)cc1 | False
Oc1ccc(Nc2ccc3ccccc3c2)cc1 | False
OC(c1cc(-c2ccc(Cl)cc2)nc2c(Cl)cccc12)C1CCCCN1 (configuration not stated) | True

Q: How was C/C(=N/NC(N)=S)c1ccc(C)cc1 classified in this test?
Ans: False

Q: How did this test come out for CCN1/C(=C/C(C)=C/c2sc3ccc4ccccc4c3[n+]2CC)Sc2ccc3ccccc3c21 ?
Ans: True

Q: Kindly provide the recorded test outcome for the following compound: O=C1C=CC(=O)N1C1CCCCCCCCCCC1
Ans: True

Q: Test call, this compound: O=C/C=C/c1ccc([N+](=O)[O-])cc1
Ans: False

Q: // param item: O=C(Nc1ccc(Cl)c(Cl)c1)Nc1ccccc1O ; yields the recorded call
Ans: False

Q: GET /call?item= CCCc1cc(=O)oc2c3c(c4c(c12)OC(C)(C)CC4)OC(C)[C@H](C)[C@@H]3O (some centres not stated) returns the recorded outcome of this test.
Ans: False

---

- System: NCI-H522 lung
- TEST SUMMARY: NCI-60 one-dose screen, 48 h (100 = growth as untreated, 0 = no growth, -100 = all killed)
- ASSAY CONDITIONS: 10 µM unless noted
Compounds without any hit were thinned out: in the full panel of roughly 83,000, 20% have a hit.
MEASURE: growth (%)
Answer format: numeric, % implied, no suffix.

COc1cc(NCc2ccc3nc(N)nc(N)c3c2C)cc(OC)c1OC (tested in a mixture with another compound) | 22.3
Cc1nc([N+](=O)[O-])c(Sc2nncc(-c3ccccc3)n2)n1C | 95.2

Q: Output measured growth for this item: O=C1C(=O)c2cccnc2-c2ncccc21
Ans: 5.23

Q: Give reported growth value for CCCCCCCCCCCCCCCCCC[S+](C)CC (configuration not stated)
Ans: 30.2

Q: Output measured growth for this item: OCCOSCCO
Ans: 96.1

---

- Tested on: SK-MEL-2 melanoma
- TEST SUMMARY: NCI-60 one-dose screen, 48 h
- ASSAY CONDITIONS: 10 µM unless noted
- Procedure: Growth inhibition of the SK-MEL-2 human tumor cell line is measured as a screen for anti-cancer activity. Cells are grown in 96 well plates and exposed to the test compound for 48 hours. Compounds are tested at a single concentration, which is 10^-5 M for most compounds. The reported endpoint is percent growth (GI% or GIPRCNT), where numbers from 0 - 100% represent growth inhibition, and numbers from -100% - 0 represent cell death. For example, a value of 40 represents 60% growth inhibition. […]
About 83,000 compounds went through this panel and 20% of them were active in at least one assay; those are over-represented in the sample as a whole. Activity calls are given as the source filed them. Rule for the calls: active = growth percent below 10; inactive = the rest.
Hi! Could you answer with just one of these? Y (active), N (inactive)

Would you please look over these solved cases?
CC1(C)OC2C(COC(c3ccccc3)(c3ccccc3)c3ccccc3)OC(c3c[nH]c4c(N)ncnc34)C2O1 (stereo not drawn) | N
O=C1c2ccccc2Cc2cccc(Cl)c21 | N
CCCCCCC1N=C(N)N=C(N)N1c1cccc(Cl)c1 (stereo not drawn) | N
S=C=Nc1ccc(N2CCOCC2)cc1 | N

Q: Test call, this compound: CN(C)CCN(C)CC(C)(C)C(=O)/C=C/c1ccc(Cl)c(Cl)c1
Ans: Y

Q: Recorded call for CCCOS(=O)(=O)c1ccccc1 ?
Ans: N

---

- Test system: MOLT-4 leukemia
- TEST SUMMARY: NCI-60 one-dose screen, 48 h
- ASSAY CONDITIONS: 10 µM unless noted
This is part of a sample that, as a whole, favours compounds with a hit. Of some 83,000 tested, about 20% had one in any assay. Activity calls are given as the source filed them. Rule for the calls: active = growth percent below 10; inactive = the rest.
Please state which outcome applies, choosing from 1 = active, -1 = inactive

CCCCCCCCCCCC[n+]1ccc2ccccc2c1 | 1
O=C1C(=O)c2cccnc2-c2ncccc21 | 1
CCc1cnc2ccccc2c1/C=C/c1ccc(N(C)C)cc1 | -1

Q: Answer briefly: the call reported for CC(C)c1ccc(Nc2n[nH]c(=S)s2)cc1 in this assay.
Ans: -1

Q: Which outcome was entered for the compound CC(=O)c1c(O)c(C)c(O)c2c1OC1=CC(=O)C(C(C)=O)C(=O)C12C (stereo unspecified) in this test?
Ans: -1

Q: Could you kindly confirm the outcome this assay logged for Cc1ccc2c(c1)sc(-c1ccc(N(C)C)cc1)[n+]2C ?
Ans: 1

---

- Test system: UACC-62 melanoma
- TEST SUMMARY: NCI-60 one-dose screen, 48 h (100 = growth as untreated, 0 = no growth, -100 = all killed)
- ASSAY CONDITIONS: 10 µM unless noted
- Method: Growth inhibition of the UACC-62 human tumor cell line is measured as a screen for anti-cancer activity. Cells are grown in 96 well plates and exposed to the test compound for 48 hours. Compounds are tested at a single concentration, which is 10^-5 M for most compounds. The reported endpoint is percent growth (GI% or GIPRCNT), where numbers from 0 - 100% represent growth inhibition, and numbers from -100% - 0 represent cell death. For example, a value of 40 represents 60% growth inhibition. […]
Compounds without any hit were thinned out: in the full panel of roughly 83,000, 20% have a hit. The source made the active and inactive calls. Rule for the calls: active = growth percent below 10; inactive = the rest.
MEASURE: growth

Some entries whose results are on file:
CCOC(=O)C1=C(C(=O)c2ccccc2)C(c2cccc([N+](=O)[O-])c2)C(C(=O)c2ccccc2)=C(C(=O)OCC)N1 | 70.2% (inactive)
Cc1cc(C(N)=O)cc(C)c1C(=O)OCCCl | 102% (inactive)
CCN(CC)CC(O)CNc1ccc(NCC2CO2)c2c1C(=O)c1ccccc1C2=O (centres undefined) | -73.5% (active)
COc1ccc2nc3cc([N+](=O)[O-])ccc3c(NNc3ccccc3)c2c1 | 74.6% (inactive)
CCSc1nc2ccccc2o1 | 102% (inactive)
NC(CS/C(Cl)=C/Cl)C(=O)O (centres undefined) | 77.4% (inactive)

// next item, growth requested
Q: Name the value of growth reported for OCCOSCCO when tested on UACC-62 melanoma.
Ans: 114% (inactive)

Numbers sourced from PubChem BioAssay (NCI).
